Provenance of the data: patent US10988465B2

- Experimental Protocol: 7-day mouse toxicology study: toxicokinetics (plasma, brain, CSF), 30 mg/kg/day PO
- Type: in vivo, male C57BL/6 mice
- Experimental Conditions: male, C57BL/6, mouse, plasma, po, 30 mg/kg, Day 7, Plasma, 30 mg/kg PO; read-out: AUClast
Measured Endpoint: AUC(0-t) (ng·h/mL)

>  <Molecule>
Cc1cccnc1[C@@H]1CCC[C@H](c2nc3cccc(N4CCN(C)CC4)c3[nH]2)N1C (racemic)

>  <Unit Symbol>
ng·h/mL

>  <Numeric Result>
3560

$$$$

----------
- Experimental Protocol: 7-day mouse toxicology study: toxicokinetics (plasma, brain, CSF), 30 mg/kg/day PO
- Format: in vivo, male C57BL/6 mice
- Experimental Conditions: male, C57BL/6, mouse, brain, po, 30 mg/kg, brain, D 1-30 mg/kg, PO; read-out: AUClast (b)

>  <Molecule>
Cc1cccnc1[C@@H]1CCC[C@H](c2nc3cccc(N4CCN(C)CC4)c3[nH]2)N1C (racemic)

>  <AUC(0-t) / ng·h/mL>
4260

$$$$

----------
The following compounds are shown together with reported log10 of AUC(0-t) values.
- Experimental Protocol: Mouse brain uptake assay (MBUA), 3 mg/kg IV, 0-1 h, 3 time points
- Type: in vivo, male CD1 mice
- Experimental Conditions: male, CD1; brain, mouse, 3 mg/kg IV, 0-1 h; read-out: AUClast (b)
Measured Endpoint: log10 of AUC(0-t) (log10 of the value in ng·h/mL)

>  <Compound>
COc1cccnc1[C@@H]1CCC[C@H](c2nc3cccc(N4CCN(C)CC4)c3[nH]2)N1 [I-127]

>  <log10 of AUC(0-t)>
2.00

$$$$
>  <Compound>
CN1CCN(c2cccc3nc([C@H]4CCC[C@@H](c5ncccc5Cl)N4C)[nH]c23)CC1 [I-9]

>  <log10 of AUC(0-t)>
3.18

$$$$
>  <Compound>
Cc1cccnc1[C@@H]1CCC[C@H](c2nc3cccc(N4CCN(C)CC4)c3[nH]2)N1C (racemic) [I-3]

>  <log10 of AUC(0-t)>
2.26

$$$$
>  <Compound>
Cc1cccnc1[C@@H]1CCC[C@H](c2nc3cccc(N4CCN(C)CC4)c3[nH]2)N1 [I-83]

>  <log10 of AUC(0-t)>
2.05

$$$$
>  <Compound>
Cc1cccnc1[C@@H]1CCC[C@H](c2nc3ccccc3n2CC2CCN(C)CC2)N1C [I-15]

>  <log10 of AUC(0-t)>
1.74

$$$$
>  <Compound>
Cc1cccnc1[C@@H]1CCC[C@H](c2nc3cccc(N4CCN(C)C5(CC5)C4)c3[nH]2)N1 [I-132]

>  <log10 of AUC(0-t)>
2.73

$$$$
>  <Compound>
CN1CCN(c2cccc3nc([C@H]4CCC[C@@H](c5ncccc5Cl)N4)[nH]c23)CC1 (racemic) [I-122]

>  <log10 of AUC(0-t)>
2.62

$$$$
>  <Compound>
Cc1cccnc1[C@@H]1CCC[C@H](c2nc3ccccc3n2CC2CCN(C(C)C)CC2)N1C [I-23]

>  <log10 of AUC(0-t)>
1.70

$$$$

----------
- Experimental Protocol: Mouse brain uptake assay (MBUA), 3 mg/kg IV, 0-1 h, 3 time points
- Assay type: in vivo, male CD1 mice
- Experimental Conditions: male, CD1; unbound brain/unbound plasma, mouse, 3 mg/kg IV, 0-1 h
Measured Endpoint: Kp uu

>  <Compound>
Cc1cccnc1[C@@H]1CCC[C@H](c2nc3ccccc3n2CC2CCN(C(C)C)CC2)N1C [I-23]

>  <Numeric Result>
0

$$$$
